src = patent US11771738B2

- System: D. immitis L4 larvae
- assay text: Dirofilaria immitis, L4 Stage (DiL4) In Vitro Assay
- Format: cell-based
- assay setup: larval stage selectivity, ratio of DiMf MED to DiL4 MED
measure name: DiMf/DiL4
// return just the number, without any unit appended

{"line notation": "Cc1ncncc1Cc1ccc(C[C@H]2OC(=O)[C@H](CC(C)C)N(C)C(=O)[C@@H](C)OC(=O)[C@H](CC(C)C)N(C)C(=O)[C@@H](Cc3ccc(Cc4cncnc4C)cc3)OC(=O)[C@H](CC(C)C)N(C)C(=O)[C@@H](C)OC(=O)[C@H](CC(C)C)N(C)C2=O)cc1", "target or test system": "D. immitis L4 larvae", "DiMf/DiL4": 1}
{"line notation": "CC(C)C[C@H]1C(=O)O[C@H](Cc2ccc(Cc3ncco3)cc2)C(=O)N(C)[C@@H](CC(C)C)C(=O)O[C@H](C)C(=O)N(C)[C@@H](CC(C)C)C(=O)O[C@H](Cc2ccc(Cc3ncco3)cc2)C(=O)N(C)[C@@H](CC(C)C)C(=O)O[C@H](C)C(=O)N1C", "target or test system": "D. immitis L4 larvae", "DiMf/DiL4": 2}
{"line notation": "CC(C)C[C@H]1C(=O)O[C@H](Cc2ccc(Cc3cncnc3C(F)F)cc2)C(=O)N(C)[C@@H](CC(C)C)C(=O)O[C@H](C)C(=O)N(C)[C@@H](CC(C)C)C(=O)O[C@H](Cc2ccc(Cc3cncnc3C(F)F)cc2)C(=O)N(C)[C@@H](CC(C)C)C(=O)O[C@H](C)C(=O)N1C", "target or test system": "D. immitis L4 larvae", "DiMf/DiL4": 2.5}

Next compound, DiMf/DiL4 to be filled in.
Task: Entry Cc1cc(Cc2ccc(C[C@H]3OC(=O)[C@H](CC(C)C)N(C)C(=O)[C@@H](C)OC(=O)[C@H](CC(C)C)N(C)C(=O)[C@@H](Cc4ccc(Cc5cc(C)nn5C)cc4)OC(=O)[C@H](CC(C)C)N(C)C(=O)[C@@H](C)OC(=O)[C@H](CC(C)C)N(C)C3=O)cc2)n(C)n1 has what DiMf/DiL4?
Result: 5
